Every entry's value here was drawn from patent US8741884B2.

Test system: HCV pseudoparticles (genotype 1a HCV E1 and E2 envelope, H77C isolate)
experimental protocol: microbe, parasite or virus in culture
Assay type: cell-based
run conditions: Hepatitis C virus, Huh-7, 48 h, class symbol; HCV pseudoparticles genotype 1a (H77C), Huh7 cells, luciferase 2 days after infection, average of duplicates
observation type: EC50

// known answers, use as guide
# compound, EC50
records = [
    ("CCOC(=O)N1CCCCOc2cc(ccc2C(=O)NCC2(CN3CCCC3)CC2)Nc2nc(nc(OCC(F)(F)F)n2)NCc2ccc(cc2)OCCC1 [Example 3020]", "0.1 to 100 nM"),
    ("O=C(NC1CCNC1=O)c1ccc2cc1OCCCCCCOc1ccc(cc1)CNc1nc(nc(OCC(F)(F)F)n1)N2 (stereo not shown) [Example 1324]", "0.1 to 100 nM"),
    ("O=C(NCCC[C@H](NC(=O)c1ccc2cc1OCCCCCCOc1ccc(cc1)CNc1nc(nc(OCC(F)(F)F)n1)N2)C(=O)O)OCc1ccccc1 [Example 1413]", "0.1 to 100 nM"),
    ("O=C(NC(C(=O)O)C1CCCNC1)c1ccc2cc1OCCOCCOCCOc1ccc(cc1)CNc1nc(nc(OCC(F)(F)F)n1)N2 (stereo not shown) [Example 1606]", "0.1 to 100 nM"),
    ("CC(C)(C)OC(=O)NC(CNC(=O)c1ccc2cc1OCCCCCCOc1ccc(cc1)CNc1nc(nc(OCC(F)(F)F)n1)N2)C(=O)O (stereo not shown) [Example 1409]", "0.1 to 100 nM"),
    ("CN(C)CC(C)(C)CNC(=O)c1ccc2cc1OCC=CCOc1ccc(cc1)CNc1nc(nc(OCC(F)(F)F)n1)N2 [Example 2007]", "100 to 1000 nM"),
]

GET /values?readout=EC50&item= N=C(N)NCCC[C@H](NC(=O)c1ccc2cc1OCCCCCCOc1ccc(cc1)CNc1nc(nc(OCC(F)(F)F)n1)N2)C(=O)O [Example 1402] 0.1 to 100 nM

Moving on to the next compound: COC(=O)C(NC(=O)c1ccc2cc1OCCOCCOCCOc1ccc(cc1)CNc1nc(nc(OCC(F)(F)F)n1)N2)C1CCCNC1 (stereo not shown) [Example 1607] 0.1 to 100 nM

Now consider COC(=O)CCNC(=O)c1ccc2cc1OCCCCCCCCOc1ccc(cc1)CNc1nc(nc(OCC(F)(F)F)n1)N2 [Example 1017] and answer again. 100 to 1000 nM
